# maps each entry to its GI50
- Tested on: UO-31
- ASSAY EXPLANATION: NCI tumour cell line growth inhibition, 48 h
Active and inactive are the calls of the source. Cut-off read from the data, not from the text of the source: active = GI50 up to about 1.1 µM and inactive = higher.
MEASURED PARAMETER: GI50

{"COMPOUND": "O=c1nc2ccc3sc4ccccc4c(=O)c3n2c(=O)[nH]1", "MEASURED PARAMETER": "GI50", "REPORTED": "> 100 µM (inactive)"}
{"COMPOUND": "CC(=O)C1(O)CCC2(O)C3(O)CC=C4CC(O)CCC4(C)C3CC(OC(=O)c3ccc(O)cc3)C12C (stereo not drawn)", "MEASURED PARAMETER": "GI50", "REPORTED": "> 100 µM (inactive)"}
{"COMPOUND": "CCOC(=O)c1sc2nc(SC)nc(Nc3ccc(OC)c(OC)c3)c2c1N", "MEASURED PARAMETER": "GI50", "REPORTED": "22.4 µM (inactive)"}

Numbers sourced from ChEMBL document CHEMBL1201862.
